Value source: PubChem BioAssay AID1195

Hi there, I'd appreciate the recorded maximum recommended daily dose (mmol/kg-bw/day) for every entry that follows.
# Test system: human maximum recommended daily dose, FDA database
# EXPERIMENT_DESCRIPTION: DSSTox (FDAMDD) FDA Maximum (Recommended) Daily Dose Database
# EXPERIMENTAL_PARAMETERS: TherapeuticCategory: cardiotonic; stronger effect = lower value
Give the figure by itself; no unit, no explanation.

Q. Provide value of maximum recommended daily dose (mmol/kg-bw/day) for this record tested with human maximum recommended daily dose, FDA database: CC(CCc1ccc(O)cc1)NCCc1ccc(O)c(O)c1 (stereo unspecified)
A. 0.000133

Q. Provide value of maximum recommended daily dose (mmol/kg-bw/day) for this record tested with human maximum recommended daily dose, FDA database: "C[C@H]1O[C@@H](O[C@H]2CC[C@@]3(C)[C@H](CC[C@@H]4[C@@H]3C[C@@H](O)[C@]3(C)[C@@H](C5=CC(=O)OC5)CC[C@]43O)C2)C[C@H](O)[C@@H]1O[C@H]1C[C@H](O)[C@H](O[C@H]2C[C@H](O)[C@H](O[C@@H]3O[C@H](CO)[C@@H](O)[C@H](O)[C@H]3O)[C@@H](C)O2)[C@@H](C)O1"
A. 8.48e-08

Q. Provide value of maximum recommended daily dose (mmol/kg-bw/day) for this record tested with human maximum recommended daily dose, FDA database: CC(=O)O[C@H]1C[C@H](O[C@H]2[C@@H](O)C[C@H](O[C@H]3[C@@H](O)C[C@H](OC4CC[C@@]5(C)C(CC[C@@H]6[C@@H]5CC[C@]5(C)[C@@H](C7=CC(=O)OC7)[C@@H](O)C[C@]65O)C4)O[C@@H]3C)O[C@@H]2C)O[C@H](C)[C@H]1O[C@@H]1O[C@H](CO)[C@@H](O)[C@H](O)[C@H]1O (stereo partly specified)
A. 3.38e-05

Q. Provide value of maximum recommended daily dose (mmol/kg-bw/day) for this record tested with human maximum recommended daily dose, FDA database: "Nc1cc(-c2ccncc2)c[nH]c1=O"
A. 0.00401

Q. Provide value of maximum recommended daily dose (mmol/kg-bw/day) for this record tested with human maximum recommended daily dose, FDA database: "C[C@@H]1O[C@@H](O[C@@H]2C=C3CC[C@@H]4[C@H](CC[C@]5(C)[C@@H](c6ccc(=O)oc6)CC[C@]45O)[C@@]3(C)CC2)[C@H](O)[C@H](O)[C@H]1O"
A. 7.86e-05

Q. Provide value of maximum recommended daily dose (mmol/kg-bw/day) for this record tested with human maximum recommended daily dose, FDA database: CC(=O)O[C@H]1C[C@H](O[C@H]2[C@@H](O)C[C@H](O[C@H]3[C@@H](O)C[C@H](OC4CC[C@@]5(C)[C@H](CC[C@@H]6[C@@H]5CC[C@]5(C)[C@@H](C7=CC(=O)OC7)CC[C@]65O)C4)O[C@@H]3C)O[C@@H]2C)O[C@H](C)[C@H]1O[C@@H]1O[C@H](CO)[C@@H](O)[C@H](O)[C@H]1O (stereo partly specified)
A. 3.44e-05

###

# Test system: human maximum recommended daily dose, FDA database
# EXPERIMENT_DESCRIPTION: DSSTox (FDAMDD) FDA Maximum (Recommended) Daily Dose Database
# EXPERIMENTAL_PARAMETERS: TherapeuticCategory: antibacterial; stronger effect = lower value
QUANTITY: maximum recommended daily dose (mmol/kg-bw/day)
Give the figure by itself; no unit, no explanation.

Q. Given "CC(=O)OCC1=C(C(=O)O)N2C(=O)[C@@H](NC(=O)CC#N)[C@H]2SC1" , state its recorded maximum recommended daily dose (mmol/kg-bw/day).
A. 0.295

Q. Given "CC(=O)N(c1onc(C)c1C)S(=O)(=O)c1ccc(N)cc1" , state its recorded maximum recommended daily dose (mmol/kg-bw/day).
A. 0.216

Q. Given CN[C@@H]1[C@@H](O)[C@@H](O[C@@H]2[C@@H](O)[C@H](OC3OC(CN)=CCC3N)[C@@H](N)C[C@H]2N)OC[C@]1(C)O (some centres undefined) , state its recorded maximum recommended daily dose (mmol/kg-bw/day).
A. 0.0067

Q. Given "Cc1onc(-c2c(F)cccc2Cl)c1C(=O)N[C@@H]1C(=O)N2[C@@H]1SC(C)(C)[C@@H]2C(=O)O" , state its recorded maximum recommended daily dose (mmol/kg-bw/day).
A. 0.147

Q. Given CO/N=C(/C(=O)N[C@@H]1C(=O)N2C(C(=O)OC(C)OC(C)=O)=C(COC(N)=O)CS[C@H]12)c1ccco1 (some centres undefined) , state its recorded maximum recommended daily dose (mmol/kg-bw/day).
A. 0.0327

Q. Given "COCC1=C(C(=O)O)N2C(=O)[C@@H](NC(=O)/C(=N\OC)c3csc(N)n3)[C@H]2SC1" , state its recorded maximum recommended daily dose (mmol/kg-bw/day).
A. 0.0234

Q. Given "O=C(O)[C@H]1/C(=C/CO)O[C@@H]2CC(=O)N21" , state its recorded maximum recommended daily dose (mmol/kg-bw/day).
A. 0.0314

Q. Given "NC(=S)N=Nc1ccc(NN=C(N)N)cc1" , state its recorded maximum recommended daily dose (mmol/kg-bw/day).
A. 0.000704

Q. Given "CN(C)[C@@H]1C(=O)C(C(N)=O)=C(O)[C@@]2(O)C(=O)C3=C(O)c4c(O)cccc4[C@@](C)(O)[C@H]3[C@H](O)[C@@H]12" , state its recorded maximum recommended daily dose (mmol/kg-bw/day).
A. 0.0671

###

# Test system: human maximum recommended daily dose, FDA database
# EXPERIMENT_DESCRIPTION: DSSTox (FDAMDD) FDA Maximum (Recommended) Daily Dose Database
# EXPERIMENTAL_PARAMETERS: TherapeuticCategory: erectile disfunction treatment; stronger effect = lower value
# Source text: The Food and Drug Administration (FDA) Center for Drug Evaluation and Research, Office of Pharmaceutical Science, Informatics and Computational Safety Analysis Staff's Maximum Recommended Daily Dose (FDAMDD) database contains values for over 1200 pharmaceuticals listed in Martindale: The Extra Pharmacopoeia (1973, 1983, and 1993) and The Physicians' Desk Reference (1995 and 1999). […]
QUANTITY: maximum recommended daily dose (mmol/kg-bw/day)

Q. Given "CCCc1nn(C)c2c(=O)[nH]c(-c3cc(S(=O)(=O)N4CCN(C)CC4)ccc3OCC)nc12" , state its recorded maximum recommended daily dose (mmol/kg-bw/day).
A. 0.00352

###

# Tested on: human maximum recommended daily dose, FDA database
# EXPERIMENT_DESCRIPTION: DSSTox (FDAMDD) FDA Maximum (Recommended) Daily Dose Database
# EXPERIMENTAL_PARAMETERS: TherapeuticCategory: antihypotensive; stronger effect = lower value
QUANTITY: maximum recommended daily dose (mmol/kg-bw/day)

Q. Given CCNCC(O)c1cccc(O)c1 (stereo unspecified) , state its recorded maximum recommended daily dose (mmol/kg-bw/day).
A. 0.0046

###

# System: human maximum recommended daily dose, FDA database
# EXPERIMENT_DESCRIPTION: DSSTox (FDAMDD) FDA Maximum (Recommended) Daily Dose Database
# EXPERIMENTAL_PARAMETERS: TherapeuticCategory: anticholinergic; antispasmodic; stronger effect = lower value
QUANTITY: maximum recommended daily dose (mmol/kg-bw/day)
Give the figure by itself; no unit, no explanation.

Q. Provide value of maximum recommended daily dose (mmol/kg-bw/day) for this record tested with human maximum recommended daily dose, FDA database: "O=C(OCCN1CCCCC1)C(O)(c1ccccc1)c1ccccc1"
A. 0.00392

###

# Tested on: human maximum recommended daily dose, FDA database
# EXPERIMENT_DESCRIPTION: DSSTox (FDAMDD) FDA Maximum (Recommended) Daily Dose Database
# EXPERIMENTAL_PARAMETERS: TherapeuticCategory: antihypertensive; Ca channel blocker; stronger effect = lower value
# Text: The Food and Drug Administration (FDA) Center for Drug Evaluation and Research, Office of Pharmaceutical Science, Informatics and Computational Safety Analysis Staff's Maximum Recommended Daily Dose (FDAMDD) database contains values for over 1200 pharmaceuticals listed in Martindale: The Extra Pharmacopoeia (1973, 1983, and 1993) and The Physicians' Desk Reference (1995 and 1999). […]
QUANTITY: maximum recommended daily dose (mmol/kg-bw/day)
Give the figure by itself; no unit, no explanation.

Q. Given "COCC(=O)O[C@]1(CCN(C)CCCc2nc3ccccc3[nH]2)CCc2cc(F)ccc2[C@@H]1C(C)C" , state its recorded maximum recommended daily dose (mmol/kg-bw/day).
A. 0.00337

Q. Given "COC(=O)C1=C(C)NC(C)=C(C(=O)O[C@@H]2CCCN(Cc3ccccc3)C2)[C@@H]1c1cccc([N+](=O)[O-])c1" , state its recorded maximum recommended daily dose (mmol/kg-bw/day).
A. 0.000263

###

# System: human maximum recommended daily dose, FDA database
# EXPERIMENT_DESCRIPTION: DSSTox (FDAMDD) FDA Maximum (Recommended) Daily Dose Database
# EXPERIMENTAL_PARAMETERS: TherapeuticCategory: treatment of ulcerative colitis; stronger effect = lower value
QUANTITY: maximum recommended daily dose (mmol/kg-bw/day)

Q. Provide value of maximum recommended daily dose (mmol/kg-bw/day) for this record tested with human maximum recommended daily dose, FDA database: "O=C(O)c1cc(N=Nc2ccc(O)c(C(=O)O)c2)ccc1O"
A. 0.0553
